# test_system: AAK1 (Homo sapiens)
# Construct: NP_055726.2
# Sequence (Q2M2I8 1-863 isoform Q2M2I8-2): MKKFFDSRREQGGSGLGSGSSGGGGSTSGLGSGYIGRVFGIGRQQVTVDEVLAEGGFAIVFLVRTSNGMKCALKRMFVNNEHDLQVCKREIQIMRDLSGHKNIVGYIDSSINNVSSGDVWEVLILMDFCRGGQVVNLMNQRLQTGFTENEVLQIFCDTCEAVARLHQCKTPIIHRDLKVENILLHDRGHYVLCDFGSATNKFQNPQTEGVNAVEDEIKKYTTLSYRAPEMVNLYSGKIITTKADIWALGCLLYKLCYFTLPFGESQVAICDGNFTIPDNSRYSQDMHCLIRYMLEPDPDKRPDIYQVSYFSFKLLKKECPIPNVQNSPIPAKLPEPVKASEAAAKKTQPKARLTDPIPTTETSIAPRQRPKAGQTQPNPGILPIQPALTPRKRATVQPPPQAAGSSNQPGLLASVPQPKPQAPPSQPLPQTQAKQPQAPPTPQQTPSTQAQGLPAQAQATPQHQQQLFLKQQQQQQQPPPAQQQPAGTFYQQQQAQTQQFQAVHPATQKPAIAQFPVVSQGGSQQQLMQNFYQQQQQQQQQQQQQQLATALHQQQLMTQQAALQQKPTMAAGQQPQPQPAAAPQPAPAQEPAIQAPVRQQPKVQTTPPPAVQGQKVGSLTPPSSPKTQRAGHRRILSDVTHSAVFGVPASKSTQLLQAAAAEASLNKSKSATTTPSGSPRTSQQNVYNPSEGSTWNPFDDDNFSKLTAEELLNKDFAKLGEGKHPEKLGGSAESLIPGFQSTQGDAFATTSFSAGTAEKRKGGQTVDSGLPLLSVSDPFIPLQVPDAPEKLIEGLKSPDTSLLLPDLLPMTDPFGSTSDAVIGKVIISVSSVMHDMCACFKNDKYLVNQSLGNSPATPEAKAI
# experiment_summary: P81 filter plate assay
# Type: biochemical
# experimental_context: full-length human AAK1, Mu2 substrate, 33P-ATP
pIC50: −log10 of the molar value.
measure_name: pIC50

Some entries whose results are on file:
{"columns": ["molecular_string", "pIC50"],
 "data": [
  ["CC(C)OC(=O)N1CCN(c2ccn3ncc(-c4cccnc4OCCN(C)C)c3n2)CC1", "≥ 7.00"],
  ["COc1ccc(F)cc1-c1cnn2ccc(N3CCN(C(=O)O[C@@H]4CCOC4)CC3)nc12", "≥ 8.00"],
  ["COc1ccccc1-c1cnn2ccc(N3CCN(C(=O)[C@@H](N)C(C)(C)C)CC3)nc12", "≥ 8.00"],
  ["CCOc1ncccc1-c1cnn2ccc(N3CCN(C(=O)OC(C)(C)C)CC3)nc12", "≥ 8.00"],
  ["COc1ncccc1-c1cnn2ccc(N3CCN(C(=O)OC(C)(C)C)CC3)nc12", "≥ 8.00"],
  ["CC(C)(C)OC(=O)N1CCC[C@H]1CNc1ccn2ncc(C(F)(F)F)c2n1", "≥ 8.00"],
  ["COc1ncc(F)cc1-c1cnn2ccc(N(C)CCN(C)C(=O)OC(C)C)nc12", "≥ 8.00"],
  ["COc1ncccc1-c1cnn2ccc(N3CCN(C(=O)OCCN(C)C)CC3)nc12", "≥ 7.00"],
  ["COCc1cn(-c2ccn3ncc(-c4cccnc4OC)c3n2)cn1", "≥ 7.00"],
  ["COc1ncccc1-c1cnn2ccc(N3C[C@H]4C[C@@H](C3)N4C(=O)OC(C)(C)C)nc12", "≥ 7.00"]
]}

AAK1 (Homo sapiens) assay, compound `COc1ncc(C)cc1-c1cnn2ccc(N3CCN(C(=O)OC(C)C)CC3)nc12` , recorded pIC50 = ≥ 8.00

AAK1 (Homo sapiens) assay, compound `CN[C@H](C(=O)N1CCN(c2ccn3ncc(-c4cccnc4OC)c3n2)CC1)C(C)(C)C` , recorded pIC50 = ≥ 8.00

AAK1 (Homo sapiens) assay, compound `[2H]C1([2H])N(C(=O)OC(C)C)C([2H])([2H])C([2H])([2H])N(c2ccn3ncc(Br)c3n2)C1([2H])[2H]` , recorded pIC50 = ≥ 7.00
